ASSAYED_SYSTEM: Opioid receptors; mu & delta (Rattus norvegicus) (UniProt P33533+P33535)
Sequence (P33533 whole entry, looked up): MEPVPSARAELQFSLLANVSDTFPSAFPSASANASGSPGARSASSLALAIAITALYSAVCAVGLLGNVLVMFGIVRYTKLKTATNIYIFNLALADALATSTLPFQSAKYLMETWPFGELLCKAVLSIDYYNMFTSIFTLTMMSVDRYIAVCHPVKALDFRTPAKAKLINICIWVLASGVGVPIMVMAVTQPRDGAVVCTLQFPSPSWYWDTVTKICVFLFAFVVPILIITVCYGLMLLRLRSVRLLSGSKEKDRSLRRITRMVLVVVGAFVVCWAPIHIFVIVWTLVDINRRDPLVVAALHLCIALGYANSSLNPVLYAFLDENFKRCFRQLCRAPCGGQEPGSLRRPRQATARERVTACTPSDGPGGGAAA
Sequence (P33535 whole entry, looked up): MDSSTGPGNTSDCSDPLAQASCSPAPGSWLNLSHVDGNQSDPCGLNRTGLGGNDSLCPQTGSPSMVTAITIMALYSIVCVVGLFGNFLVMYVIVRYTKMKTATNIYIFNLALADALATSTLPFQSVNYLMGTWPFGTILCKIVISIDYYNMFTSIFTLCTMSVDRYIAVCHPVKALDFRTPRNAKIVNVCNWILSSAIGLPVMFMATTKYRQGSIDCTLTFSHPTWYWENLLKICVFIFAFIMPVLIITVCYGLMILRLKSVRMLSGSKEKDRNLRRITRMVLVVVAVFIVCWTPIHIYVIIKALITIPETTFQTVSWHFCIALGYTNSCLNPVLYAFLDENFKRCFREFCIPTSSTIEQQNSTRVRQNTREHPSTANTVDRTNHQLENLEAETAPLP
TEST_DETAILS: Ratio of receptor binding inhibitory concentrations against mu and delta opioid receptors from rat brain as IC50 (vs [3H]-DPDPE) / IC50 (vs [3H]naloxone)
MEASURED_ATTRIBUTE: Ratio
Hey, just send me the number, nothing else.

SMILES_INPUT | Ratio
C[C@@H](O)[C@H](NC(=O)[C@H]1CSSC(C)(C)[C@H](NC(=O)[C@H](N)c2ccccc2)C(=O)N[C@@H](Cc2ccccc2)C(=O)N[C@H](Cc2c[nH]c3ccccc23)C(=O)N[C@@H](CCCCN)C(=O)N[C@H]([C@@H](C)O)C(=O)N1)C(=O)O | 15
CC(C)[C@H]1NC(=O)[C@H](CCCCN)NC(=O)[C@@H]([C@@H](C)O)NC(=O)[C@H](Cc2ccc(O)cc2)NC(=O)[C@@H](NC(=O)[C@H](N)Cc2ccccc2)CSSC(C)(C)[C@H](C(=O)N[C@H](C(N)=O)[C@@H](C)O)NC1=O | 360

Kindly review the next molecule as well.
Ask: Endpoint output: Ratio of CCCC[C@@H]1NC(=O)[C@@H](Cc2c[nH]c3ccccc23)NC(=O)[C@H](Cc2ccc(O)cc2)NC(=O)[C@@H](NC(=O)[C@H](N)Cc2ccccc2)CSSC(C)(C)[C@H](C(=O)N[C@H](C(N)=O)[C@@H](C)O)NC(=O)[C@@H]([C@@H](C)O)NC1=O . Value?
Result: 580
